Where these numbers come from: PubChem BioAssay

Test: inhibitors of hydroxyurea-induced Chk1 phosphorylation, primary screen, imaging, HeLa, phospho-Chk1 nuclear intensity (AID 1187); also: test concentration not given here
Settings: hydroxyurea-induced phospho-Chk1 immunofluorescence imaging, higher = more signal
// Criterion not met strictly below -0.1 in z-score; Criterion met otherwise

[
  {
    "compound": "COC(=O)[C@@]1(Cc2ccccc2)[C@@H]2[C@@H](CC(=O)[C@H]2CC(=O)C(=O)N(C)C)CN1C(=O)c1ccccc1",
    "label": "Criterion met"
  }
]

IN: Hi, just wondering whether C=CCC(OC(C)=O)[C@@H]1[C@@H](N(Cc2cc3ccccc3o2)C(=O)Cc2ccc(OC)cc2)c2cc(OCCCO)ccc2N1C(=O)Cc1ccc2ccccc2c1 (some centres undefined) shows z-score of -0.1 or higher.
OUT: Criterion met

IN: Now try CC(C)C(=C=CC[C@@H](O)c1ccc(OCCO)cc1)CCO .
OUT: Criterion met

IN: Now try COC(=O)c1ccc([C@H](NC(=O)c2ccccc2)[C@]2(C)C[C@H]2C2CCCCC2)cc1 .
OUT: Criterion not met

IN: Now try CN(C)CCCCNC(=O)[C@H]1C[C@H]2C(=O)NCC(=O)N2[C@H]1c1cccc(OCCO)c1 .
OUT: Criterion not met

IN: Now try COC(=O)[C@@]1(Cc2ccccc2)[C@H]2c3cc(C(=O)N4CCCC4)n(Cc4ccc(C(F)(F)F)nc4)c3C[C@H]2CN1C(=O)c1ccccc1 .
OUT: Criterion met

IN: Now try C=CC[C@@]12N=C(c3ccc(OCCCO)cc3)O[C@@H]1c1ccccc1N(Cc1ccccc1)C2=O .
OUT: Criterion met

IN: Now try C=CCC(OC(C)=O)[C@@H]1[C@@H](N(Cc2cccc3ccccc23)C(=O)c2ccc(C)cc2)c2cc(OCCCO)ccc2N1C(=O)c1ccc2ccccc2n1 (some centres undefined) .
OUT: Criterion not met

IN: Now try C=CCOC(=O)[C@H]1[C@@H]2C(=O)O[C@@H](c3ccccc3)[C@@H](c3ccccc3)N2[C@@H](c2ccc(OCCOC(=O)[C@H]3C[C@H]4C(=O)NCC(=O)N4[C@H]3c3ccc(O)cc3)cc2)[C@]12C(=O)Nc1ccc(I)cc12 .
OUT: Criterion not met

* * *

Assay: P. aeruginosa biofilm formation inhibitors, primary screen, PAO1 strain, BacTiter-Glo luminescence, LB-PBS (AID 1144)
Settings: 12 h, higher = more signal
Class (required): determined from z-score; valid ranges are lower (below -0.6), middle (-0.6 to below 0.2), upper (0.2 or more)

See these solved cases before continuing.
[
  {
    "compound": "CC(=O)NCCCC[C@@H]1NC(=O)[C@H]2C[C@@H](C(=O)NCCCCCC[N+](C)(C)C)[C@@H](c3ccc(O)cc3)N2C1=O",
    "label": "lower"
  },
  {
    "compound": "C=CC[C@@]12N=C(c3ccc(OCCCO)cc3)O[C@@H]1c1ccccc1N(Cc1ccccc1)C2=O",
    "label": "upper"
  },
  {
    "compound": "C=C(COC)C(=O)CC[C@@H](OC(=O)c1cccnc1)c1cccc(OCCO)c1",
    "label": "lower"
  },
  {
    "compound": "C=C(/C(=C/C[C@H](OC(=O)c1ccncc1)c1ccccc1OCCO)c1cc(C(=O)OC)ccc1OC)C(C)C",
    "label": "middle"
  },
  {
    "compound": "CO[C@H]1O[C@H](CO)[C@@H](OC(=O)Nc2ccc3c(c2)OCO3)[C@@H]2OC(=O)[C@@H](Cc3ccccc3)C/C=C/C[C@H](Cc3ccccc3)C(=O)O[C@@H]12",
    "label": "upper"
  },
  {
    "compound": "CCCCC(O)C1C=CC2C(=O)N(C)C(=O)C2N1Nc1ccccc1 (stereo not drawn)",
    "label": "middle"
  },
  {
    "compound": "[N-]=[N+]=NCc1ccccc1C[C@]1(C(=O)NCc2ccccc2)N=C(c2ccc(OCCCO)cc2)O[C@H]1c1ccccc1CN=[N+]=[N-]",
    "label": "middle"
  },
  {
    "compound": "CC(C)C(=C=CC[C@@H](O)c1ccccc1OCCO)C[C@@H](O)c1cc(Cl)cc(Cl)c1O",
    "label": "upper"
  },
  {
    "compound": "COCC1=C([C@H](O)CCc2ccccc2)[C@H](CO)n2c(=O)n(-c3ccccc3)c(=O)n2C1",
    "label": "lower"
  },
  {
    "compound": "CN(C)CCCNC(=O)[C@@]1(Cc2ccccc2I)c2ccccc2C(=O)N(Cc2ccccc2)[C@H]1c1ccc(CO)cc1",
    "label": "middle"
  }
]

IN: Quick check: band for COC(=O)Cn1c(C(=O)N(C)C)cc2c1C[C@H]1CN(C(=O)c3ccccc3)[C@@](Cc3ccc(OC)cc3)(C(=O)OC)[C@@H]21
OUT: upper

IN: Now try COc1ccc(NN2C(C(O)c3ccc(OC)cc3)C=CC3C(=O)N(C4CCCCC4)C(=O)C32)cc1 (stereo not drawn) .
OUT: middle

IN: Now try CC(C)(C)N1CC=CC23O[C@@H]4/C=C\CCCOC(=O)C4[C@H]2C(=O)N(CCCCCCO)[C@@H]3C1=O (stereo partly drawn) .
OUT: lower

IN: Now try [N-]=[N+]=NCc1ccccc1[C@H]1OC(c2ccc(OCCCO)cc2)=N[C@@]1(Cc1ccccc1)C(=O)N1CCOCC1 .
OUT: lower
